Reported minimum inhibitory concentration by item:
Test system: S. aureus 503
Assay: agar plate dilution method, MIC
Format: cell-based
Settings: about 10^7 CFU/ml, 37° C., 18 hours
Answer field: number only, no words.

C[C@@H](O)[C@H]1C(=O)N2C(C(=O)O)=C([C@H](O)C3CCCC3)[C@H](C)[C@H]12 : 0.098

Lookup: Would you kindly share the measured minimum inhibitory concentration for C[C@@H](O)[C@H]1C(=O)N2C(C(=O)O)=C([C@H]3CCCO3)S[C@H]12 [SUN-5555, reference compound] ?
Found: 0.098

Lookup: Next compound up: `CC(C)[C@@H](O)C1=C(C(=O)O)N2C(=O)[C@H]([C@@H](C)O)[C@H]2[C@H]1C`
Found: 0.098

Lookup: Entry `C[C@@H](O)[C@H]1C(=O)N2C(C(=O)O)=C([C@H](O)C3CC3)[C@H](C)[C@H]12` please
Found: 0.049
